melting point reference

| compound | melting point |
| --- | --- |
| c1ccc(Nc2nc(Nc3ccccc3)nc(N3CCCCCC3)n2)cc1 | 160 to 161 °C |
| c1ccc2cc(Nc3nc(Nc4ccc5ccccc5c4)nc(N4CCCCCC4)n3)ccc2c1 | 164 to 165 °C |
| Cc1ccc2c(c1)N(C(=O)COc1ccc3ccccc3c1)C(C)(C)c1ssc(=S)c1-2 | > 144 °C |
| CC1CCCCN1C(=S)Sc1c(-c2ccccc2)c2cc(Cl)ccc2[nH]c1=O (centres unmarked) | 265 to 266 °C |
| Cc1ccc2c(c1)-c1c(ssc1=S)C(C)(C)N2C(=O)COc1ccc2ccccc2c1 | 153 to 154 °C |
| CN1CCN(c2nc(Nc3cccc4ccccc34)nc(Nc3cccc4ccccc34)n2)CC1 | 160 to 161 °C |
| COc1ccc2c(c1)-c1c(ssc1=S)C(C)(C)N2C(=O)COc1ccc2ccccc2c1 | 136 to 137 °C |
| Cc1cc2c(cc1C)N(C(=O)COc1ccc3ccccc3c1)C(C)(C)c1ssc(=S)c1-2 | 189 to 190 °C |

---

Recorded EC50 values for a group of compounds are listed next.
# System: SARS-CoV-2
# protocol_details: microbe, parasite or virus in culture
# Type: cell-based
# experimental_parameters: Severe acute respiratory syndrome coronavirus 2, Vero C1008; Vero E6 cells, MOI 0.1, 96 h, MTT; read-out: EC50

| compound | assay_target | EC50 |
| --- | --- | --- |
| CN1CCN(c2nc(Nc3cccc4ccccc34)nc(Nc3cccc4ccccc34)n2)CC1 | SARS-CoV-2 | 19.6 µM |
| COc1ccc2c(c1)-c1c(ssc1=S)C(C)(C)N2C(=O)COc1ccc2ccccc2c1 | SARS-CoV-2 | 9.4 µM |
| Clc1ccc2nc(OCc3ccccc3Cl)c(N3CCOCC3)c(-c3ccccc3)c2c1 | SARS-CoV-2 | 4.77 µM |
| c1ccc(Nc2nc(Nc3ccccc3)nc(N3CCCCCC3)n2)cc1 | SARS-CoV-2 | 1.04 µM |
| Cc1cc2c(cc1C)N(C(=O)COc1ccc3ccccc3c1)C(C)(C)c1ssc(=S)c1-2 | SARS-CoV-2 | 0.51 µM |
| Cc1ccc2c(c1)-c1c(ssc1=S)C(C)(C)N2C(=O)COc1ccc2ccccc2c1 | SARS-CoV-2 | 2.71 µM |
| Cc1ccc2c(c1)N(C(=O)COc1ccc3ccccc3c1)C(C)(C)c1ssc(=S)c1-2 | SARS-CoV-2 | 1.16 µM |
| c1ccc2cc(Nc3nc(Nc4ccc5ccccc5c4)nc(N4CCCCCC4)n3)ccc2c1 | SARS-CoV-2 | 18.2 µM |
| CCC(CC)COC(=O)[C@H](C)N[P@](=O)(OC[C@H]1O[C@@](C#N)(c2ccc3c(N)ncnn23)[C@H](O)[C@@H]1O)Oc1ccccc1 [remdesivir, reference compound] | SARS-CoV-2 | 2.94 µM |
